Sourced from BindingDB's records for patent US20230391758

experimental.target: Ceramide glucosyltransferase (Homo sapiens, UniProt Q16739)
Sequence (Q16739 whole entry): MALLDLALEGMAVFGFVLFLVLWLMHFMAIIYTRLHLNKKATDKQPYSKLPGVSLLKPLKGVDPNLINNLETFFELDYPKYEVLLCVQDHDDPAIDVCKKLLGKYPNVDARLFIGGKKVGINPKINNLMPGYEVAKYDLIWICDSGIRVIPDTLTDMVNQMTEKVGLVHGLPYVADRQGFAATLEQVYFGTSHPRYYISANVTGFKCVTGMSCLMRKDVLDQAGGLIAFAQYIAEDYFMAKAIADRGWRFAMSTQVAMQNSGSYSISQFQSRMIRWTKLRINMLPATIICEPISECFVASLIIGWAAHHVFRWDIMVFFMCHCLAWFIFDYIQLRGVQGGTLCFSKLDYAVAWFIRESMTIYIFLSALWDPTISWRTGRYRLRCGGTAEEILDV
experiment.description: UDP-Glo Glucosylceramide Synthase Biochemical Assay

| compound.structure | experimental.target | EC50 / nM |
| --- | --- | --- |
| CCCOc1ccccc1-c1cccc2cc(C(=O)Nc3cccnc3)oc12 | Ceramide glucosyltransferase (Homo sapiens, UniProt Q16739) | 1.8 |
